test system: NCI-H226; test: Growth inhibition of human NCI-H226 cells assessed as cell growth at 10 uM incubated for 48 hrs by sulforhodamine B assay relative to control; type: functional; settings: NCI-H226, 48 h, read-out: Activity
REPORTED_METRIC: growth at 10 µM (%)

>  <SUBSTANCE_SMILES>
COc1cc2cc(Oc3ccc(NC(=O)Nc4ccc(Cl)c(C(F)(F)F)c4)cc3)c(C)nc2cc1OC

>  <TEST_TARGET>
NCI-H226

>  <REPORTED_METRIC>
growth at 10 µM

>  <ENDPOINT_VALUE>
4.49

$$$$
>  <SUBSTANCE_SMILES>
COc1cc2cc(Oc3ccc(NC(=O)Nc4ccc(C(F)(F)F)cc4)cc3)c(C)nc2cc1OC

>  <TEST_TARGET>
NCI-H226

>  <REPORTED_METRIC>
growth at 10 µM

>  <ENDPOINT_VALUE>
20.9

$$$$
>  <SUBSTANCE_SMILES>
Cc1nc2cc(O)c(O)cc2cc1Oc1ccc(NC(=O)Nc2ccc(Cl)c(Cl)c2)cc1

>  <TEST_TARGET>
NCI-H226

>  <REPORTED_METRIC>
growth at 10 µM

>  <ENDPOINT_VALUE>
38.3

$$$$
>  <SUBSTANCE_SMILES>
COc1cc2cc(Oc3ccc(NC(=O)Nc4ccc(Cl)c(Cl)c4)cc3)c(C)nc2cc1OC

>  <TEST_TARGET>
NCI-H226

>  <REPORTED_METRIC>
growth at 10 µM

>  <ENDPOINT_VALUE>
7.74

$$$$

###

tested on: MDA-MB-435; assay: Growth inhibition of human MDA-MB-435 cells incubated for 48 hrs by sulforhodamine B assay; format: functional; conditions: MDA-MB-435, 48 h, read-out: LC50 (the source's name)
REPORTED_METRIC: CC50

>  <SUBSTANCE_SMILES>
COc1cc2cc(Oc3ccc(NC(=O)Nc4cccc(C(F)(F)F)c4)cc3)c(C)nc2cc1OC

>  <ENDPOINT_VALUE>
> 50 µM

$$$$
>  <SUBSTANCE_SMILES>
COc1cc2cc(Oc3ccc(NC(=O)Nc4ccc(Cl)c(Cl)c4)cc3)c(C)nc2cc1OC

>  <ENDPOINT_VALUE>
> 100 µM

$$$$
>  <SUBSTANCE_SMILES>
COc1cc2cc(Oc3ccc(NC(=O)Nc4cc(C(F)(F)F)cc(C(F)(F)F)c4)cc3)c(C)nc2cc1OC

>  <ENDPOINT_VALUE>
11.6 µM

$$$$
>  <SUBSTANCE_SMILES>
COc1cc2cc(Oc3ccc(NC(=O)Nc4ccc(Cl)c(C(F)(F)F)c4)cc3)c(C)nc2cc1OC

>  <ENDPOINT_VALUE>
> 32.5 µM

$$$$
>  <SUBSTANCE_SMILES>
Cc1nc2cc(O)c(O)cc2cc1Oc1ccc(NC(=O)Nc2ccc(Cl)c(Cl)c2)cc1

>  <ENDPOINT_VALUE>
> 32.5 µM

$$$$

###

test system: HOP-62; experiment: Growth inhibition of human HOP62 cells incubated for 48 hrs by sulforhodamine B assay; assay type: functional; conditions: HOP-62, 48 h
Some compounds, each annotated with its measured GI50.
REPORTED_METRIC: GI50 (µM)

>  <SUBSTANCE_SMILES>
Cc1nc2cc(O)c(O)cc2cc1Oc1ccc(NC(=O)Nc2ccc(Cl)c(Cl)c2)cc1

>  <ENDPOINT_VALUE>
8.62

$$$$
>  <SUBSTANCE_SMILES>
COc1cc2cc(Oc3ccc(NC(=O)Nc4ccc(Cl)c(Cl)c4)cc3)c(C)nc2cc1OC

>  <ENDPOINT_VALUE>
3.55

$$$$
>  <SUBSTANCE_SMILES>
COc1cc2cc(Oc3ccc(NC(=O)Nc4cccc(C(F)(F)F)c4)cc3)c(C)nc2cc1OC

>  <ENDPOINT_VALUE>
2.33

$$$$
>  <SUBSTANCE_SMILES>
COc1cc2cc(Oc3ccc(NC(=O)Nc4cc(C(F)(F)F)cc(C(F)(F)F)c4)cc3)c(C)nc2cc1OC

>  <ENDPOINT_VALUE>
1.35

$$$$
>  <SUBSTANCE_SMILES>
COc1cc2cc(Oc3ccc(NC(=O)Nc4ccc(Cl)c(C(F)(F)F)c4)cc3)c(C)nc2cc1OC

>  <ENDPOINT_VALUE>
1.3

$$$$
>  <SUBSTANCE_SMILES>
CNC(=O)c1cc(Oc2ccc(NC(=O)Nc3ccc(Cl)c(C(F)(F)F)c3)cc2)ccn1

>  <ENDPOINT_VALUE>
2

$$$$
